tested on: SEM cells; assay: cell viability relative to DMSO control; higher = less cytotoxic; conditions: RPMI 5 mM glucose + 10% dialyzed FBS; 48 h; 0.0211 µM
recorded.metric: cell viability
Write the figure, then the unit, nothing else.

Below, each entry is followed by its recorded cell viability result.
Memo: CC\1=C(C(\N=C(/N1)C2=CC(=NC=C2)Cl)C3=C(F)C=C(Cl)C=C3)/C(=O)NC4=C(F)C=C5[NH]N=CC5=C4 (stereo not drawn) , reported cell viability: 108%

Memo: N=C(CCSCc1csc(N=C(N)N)n1)N[S+](N)(=O)[O-] , reported cell viability: 82.2%

Memo: O=C(NOCC(O)CO)c1cc(Br)c(F)c(F)c1Nc1ccc(I)cc1F (stereo not drawn) , reported cell viability: 83.1%

Memo: CO[C@H]1/C=C/O[C@@]2(C)Oc3c(C)c(O)c4c(O)c(c5c(nc6cc(C)ccn65)c4c3C2=O)NC(=O)/C(C)=C\C=C\[C@H](C)[C@H](O)[C@@H](C)[C@@H](O)[C@@H](C)[C@H](OC(C)=O)[C@@H]1C , reported cell viability: 109%

Memo: CC(=O)O[C@H]1C(=O)[C@]2(C)[C@@H](O)C[C@H]3OC[C@@]3(OC(C)=O)C2[C@H](OC(=O)C4=CC=CC=C4)[C@]5(O)C[C@H](OC(=O)[C@H](O)[C@@H](NC(=O)C6=CC=CC=C6)C7=CC=CC=C7)\C(=C1/C5(C)C)C (stereo partly drawn) , reported cell viability: 26.3%

Memo: CC(C)n1nc(-c2cc3cc(O)ccc3[nH]2)c2c(N)ncnc21 , reported cell viability: 87.7%

Memo: CN(C)CCOc1cc(-c2cn[nH]c2)ccc1NC(=O)C1COc2ccccc2O1 (stereo not drawn) , reported cell viability: 108%

Memo: C[C@H](NC(=O)/C(C#N)=C/c1cccc(Br)n1)c1ccccc1 , reported cell viability: 122%

New cases:
Memo: C=CC(=O)Nc1cccc(Oc2nc(Nc3ccc(N4CCN(C)CC4)cc3)ncc2Cl)c1 , reported cell viability: 124%

Memo: CCC1(C)CC(=O)NC1=O (stereo not drawn) , reported cell viability: 114%

Memo: O=c1c(-c2ccc(O)cc2)coc2cc(O[C@@H]3O[C@H](CO)[C@@H](O)[C@H](O)[C@H]3O)ccc12 , reported cell viability: 119%

Memo: CCCCCCCCCCCCCCCCCCCCCCO , reported cell viability: 123%

Memo: C[C@@H](NC1=CC=CC=C1C(O)=O)C/2=C/C(=C\N3C(=O)/C=C(\N=C23)N4CCOCC4)C , reported cell viability: 87%

Memo: CC(C)c1cnn2c(NCc3ccccc3)cc(N[C@@H](CO)[C@H](O)CO)nc12 , reported cell viability: 123%

Memo: OC1=CC=C(C=C1)\C2=C\OC3=C(C=CC(=C3)O)C2=O , reported cell viability: 118%

Memo: COc1ccc(-c2cc3nccn3c(Nc3ncccc3C(N)=O)n2)cc1OC , reported cell viability: 101%

Memo: CCC(C)SSc1ncc[nH]1 (stereo not drawn) , reported cell viability: 83.9%

Memo: C\C1=C\C(=O)OC2=C1C=CC(=C2)O , reported cell viability: 136%
